Data provenance is PubChem BioAssay (NCATS).

EXPERIMENT: Cellular viability qHTS for adrenocortical cancer (ACC) cell line NCI-H295R (AID 1963990); further: nearly all actives have a fitted effect of over 60% in size
PARTICULARS: CellTiter-Glo ATP luminescence, 48 h; series mostly up to 46.1 µM
Inconclusive results are not listed. Active and inactive are the calls of the source. The call rests on the fitted dose curve; in most records, active means well fitted cell-killing curve with a large enough effect; inconclusive means small, poorly fitted or top-dose-only effect; inactive means flat fitted curve, though single readings scatter.
The categories you may choose from are active, inactive

COMPOUND	LABEL_VALUE
O=C(O)c1cc(=O)c2ccccc2o1	inactive
CN(C)CCC[C@@]1(c2ccc(F)cc2)OCc2cc(C#N)ccc21	inactive
C[C@@H]1O[C@@H](OC[C@H]2O[C@@H](Oc3c(-c4ccc(O)c(O)c4)oc4cc(O)cc(O)c4c3=O)[C@H](O)[C@@H](O)[C@@H]2O)[C@H](O)[C@H](O)[C@H]1O	inactive
NC(N)=NN=C(/C=C/c1ccc([N+](=O)[O-])o1)/C=C/c1ccc([N+](=O)[O-])o1	active
CCC1=C(C)CN(C(=O)NCCc2ccc(S(=O)(=O)NC(=O)NC3CCC(C)CC3)cc2)C1=O (stereo not given)	inactive

Ask: Would you mind telling me which call this test gave "Cc1ncc(CO)c(CO)c1O" ?
Result: inactive

Ask: Also need "O=[N+]([O-])c1ccc(Nc2ccccc2-c2ccccc2)c2nonc12" , thanks.
Result: active

Ask: Also need COC(=O)CCc1ccc(OCC(O)CNC(C)C)cc1 (stereo not given) , thanks.
Result: inactive

Ask: Also need CN1Cc2c(N)cccc2C(c2ccccc2)C1 (stereo not given) , thanks.
Result: inactive

Ask: Also need Cc1ccc(S(=O)(=O)NC(=O)NN2CC3CCCC3C2)cc1 (stereo not given) , thanks.
Result: inactive
